molecular target: UniProt P05164; experiment: Myeloperoxidase Inhibitor Screening Assay Kit (Cayman Chemical), chlorination activity; type: biochemical; design: purchased Cayman Chemical 700170; concentration or dose not given beside the values; settings: Table 1; MPO inhibitory activity
Sequence (P05164 49-745): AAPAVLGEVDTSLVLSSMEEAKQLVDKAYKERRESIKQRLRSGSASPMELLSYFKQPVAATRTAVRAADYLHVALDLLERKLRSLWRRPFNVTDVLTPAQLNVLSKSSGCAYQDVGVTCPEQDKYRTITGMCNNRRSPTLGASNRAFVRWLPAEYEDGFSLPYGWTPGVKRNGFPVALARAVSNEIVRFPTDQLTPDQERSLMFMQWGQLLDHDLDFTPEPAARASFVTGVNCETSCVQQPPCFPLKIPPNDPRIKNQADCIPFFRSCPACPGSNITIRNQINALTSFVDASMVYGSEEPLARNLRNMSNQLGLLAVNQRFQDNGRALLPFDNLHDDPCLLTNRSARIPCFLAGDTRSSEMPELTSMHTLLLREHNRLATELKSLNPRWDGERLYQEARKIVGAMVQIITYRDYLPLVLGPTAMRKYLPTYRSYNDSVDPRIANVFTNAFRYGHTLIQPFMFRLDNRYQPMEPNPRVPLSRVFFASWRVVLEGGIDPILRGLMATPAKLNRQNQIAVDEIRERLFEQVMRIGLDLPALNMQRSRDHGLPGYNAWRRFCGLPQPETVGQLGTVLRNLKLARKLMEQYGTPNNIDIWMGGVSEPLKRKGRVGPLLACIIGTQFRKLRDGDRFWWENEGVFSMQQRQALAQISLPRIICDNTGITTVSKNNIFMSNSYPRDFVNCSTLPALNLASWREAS
property_label: % Activity (%)
State the answer as a number, implicitly in %.

Request: State, in one line, measured % Activity of COc1cc(C#CC2=C[C@@H]3C[C@@]4(OC(=O)C=C24)[C@H]2CC[C@H](C(OC)OC)N32)cc(OC)c1 [222B]
Result: 70

Request: State, in one line, measured % Activity of O=C1C=C2CC(NCC3CC3)[C@@H]3C[C@@]2(O1)[C@H]1CCCCN31 (stereo partly shown) [25B]
Result: 99

Request: State, in one line, measured % Activity of `O=C1C=C2C=C[C@@H]3C[C@@]2(O1)[C@H]1CCCCN31`
Result: 32

Request: State, in one line, measured % Activity of O=C1C=C2CC(NC3CCCCC3)[C@@H]3C[C@@]2(O1)[C@H]1CCCCN31 (stereo partly shown) [28B]
Result: 86

Request: State, in one line, measured % Activity of CC(C)CS[C@H]1CC2=CC(=O)O[C@@]23C[C@@H]1N1CCCC[C@@H]13 (stereo in doubt) [57B]
Result: 2

Request: State, in one line, measured % Activity of O=C1C=C2CC(NC3CC3)[C@@H]3C[C@@]2(O1)[C@H]1CCCCN31 (stereo partly shown) [26A]
Result: 83

Further cases:
Request: State, in one line, measured % Activity of O=C1C=C2CC(SCC3CCCCCC3)[C@@H]3C[C@@]2(O1)[C@H]1CCCCN31 (stereo partly shown) [16A]
Result: 91

Request: State, in one line, measured % Activity of O=C1CC2(SCC(F)(F)F)CC(SCC(F)(F)F)[C@@H]3C[C@@]2(O1)[C@H]1CCCCN31 (stereo partly shown)
Result: 78

Request: State, in one line, measured % Activity of CCCCCCCSC1CC2=CC(=O)O[C@@]23C[C@@H]1N1CCCC[C@@H]13 (stereo partly shown) [19A]
Result: 38

Request: State, in one line, measured % Activity of `O=C(CCCC[C@@H]1SC[C@@H]2NC(=O)N[C@@H]21)NCCS[C@H]1CC2=CC(=O)O[C@@]23C[C@@H]1N1CCCC[C@@H]13`
Result: 32

---

assay: in vitro; format: in vitro ADME; settings: human, microsomes
property_label: half-life

Request: State, in one line, measured half-life of O=C1C=C2C(S(=O)(=O)c3ccccc3)C[C@@H]3C[C@@]2(O1)C1CCCCN13 (stereo partly shown)
Result: ~1.33 h

Source of measurements: patent US10149838B2
